Reference for the values: patent US6130248A

tested on: HT-29 cells; assay: SRB cell proliferation assay; type: cell-based; conditions: Homo sapiens; HT-29, SRB
Metric Name: pIC50
Quick note: pIC50 values are minus log10 of concentrations in mol/L.

Challenge: Consider the molecule CCCC(=O)OCOC(=O)C(C)(C)C [AN-9, pivaloyloxymethyl butyrate] . State its measured pIC50.
Response given: 3.84

Challenge: Consider the molecule CCCC(=O)OCOC(=O)CCCC(=O)O [GOMB, mono-(butyroyloxymethyl)glutarate] . State its measured pIC50.
Response given: 4.01

---

test system: SMS-KAN (Neuroblastoma); experiment: Clonogenicity of established tumor cell lines (soft agar); type: cell-based, human; conditions: Homo sapiens; SMS-KAN clonogenicity
Metric Name: IC50
Give the value; after it, write the unit.

Challenge: Consider the compound CCCC(=O)O [AB, arginine butyrate, reference compound] . State its measured IC50.
Response given: 1140 µM

Challenge: Consider the compound CCCC(=O)OCOC(=O)CCCC(=O)O [GOMB, mono-(butyroyloxymethyl)glutarate] . State its measured IC50.
Response given: 27 µM

---

test system: MCF7-40F (Breast Carcinoma); test: Clonogenicity of established tumor cell lines (soft agar); assay type: cell-based, human; details: Homo sapiens; MCF7-40F clonogenicity
Metric Name: IC50
Give the value; after it, write the unit.

Challenge: Consider the molecule CCCC(=O)O [AB, arginine butyrate, reference compound] . State its measured IC50.
Response given: 817 µM

Challenge: Consider the molecule CCCC(=O)OCOC(=O)CCCC(=O)O [GOMB, mono-(butyroyloxymethyl)glutarate] . State its measured IC50.
Response given: 65.9 µM
